- Assay Details: qHTS for Inhibitors of Inflammasome Signaling: IL-1-beta AlphaLISA Primary Screen; further: on the % scale 0 is the no-effect control and ±100 the full control effect
- Assay Conditions: THP-1 LPS/ATP IL-1B secretion, 16 h; at 57.5 µM, active compounds read low
The whole screen tested about 360,000 compounds, of which about 17,000 (4.7%) were called active. Not shown: some 5% with an inconclusive outcome. The list comes from a sample in which actives are over-represented; it also holds close analogues and randomly drawn compounds.
Observable: activity change (%)

In [3]: df
Out[3]:
                                smiles_data       observable  quantitative_result
0  Cn1c(=O)n(C)c2cc(/C=N/NC(=O)c3cccc(Br)c3)ccc21  activity change                -10.6
1  Cc1cc(C)cc(C(=O)N2CCN=C2SCc2ccc([N+](=O)[O-])cc2)c1  activity change                 7.28
2  Cc1cccc(CC(=O)N2CCN=C2SCc2ccc([N+](=O)[O-])cc2)c1  activity change                -73.1
3  COc1ccc(Cl)cc1C=CC=Nc1ccc(S(N)(=O)=O)cc1  activity change                 -101
4  COc1ccc(NS(=O)(=O)c2ccc(O)c(C(=O)OCC(=O)NC3CCCCC3)c2)cc1  activity change                 40.3

----------
- Assay Details: qHTS for Inhibitors of Inflammasome Signaling: IL-1-beta AlphaLISA Primary Screen
- Assay Conditions: THP-1 LPS/ATP IL-1B secretion, 16 h; at 57.5 µM, active compounds read low
The campaign covered roughly 360,000 compounds. About 17,000 (4.7%) were called active. Roughly 5% stayed inconclusive and do not appear here. The list comes from a sample in which actives are over-represented; it also holds close analogues and randomly drawn compounds.
Observable: activity change (%)

>>> df
                                smiles_data  quantitative_result
0   O=C(Nc1ccccc1C(=O)N1CCOCC1)c1ccc(Cl)cc1                 12.7
1   Cc1ccc2c(c1)c1ncnc(N3CCc4ccccc4C3)c1n2C                -19.9
2  O=C(Nc1cccc2c1CCCC2)C1CCN(C(=O)NC2CCCCC2)CC1                 15.3

----------
- Assay Details: qHTS for Inhibitors of Inflammasome Signaling: IL-1-beta AlphaLISA Primary Screen
- Assay Conditions: THP-1 LPS/ATP IL-1B secretion, 16 h; at 57.5 µM, active compounds read low
Among all 360,000 compounds or so, about 17,000 (4.7%) were called active. Another 5% or so got no clear call; they are omitted. The entries come from a sample that favours actives as a whole.
Friendly reminder: activity change below -10% is Fulfilled, at or above is Not fulfilled.

>>> df
                                    molecule    class_label
 0  CC(C(=O)NC1CCCC1)N1CCN(S(=O)(=O)c2ccccc2Cl)CC1 (stereo not drawn)  Not fulfilled
 1  O=C(COC(=O)Cn1cnc2ccccc2c1=O)NCC12CC3CC(CC(C3)C1)C2      Fulfilled
 2       Cc1nc2sc3c(c2c(=O)n1NC(=O)CCl)CCCC3      Fulfilled
 3         CCOc1ccc(CCNC(=O)Nc2ccccc2)cc1OCC  Not fulfilled
 4              Cc1ccccc1Nc1nc(-c2cccnc2)cs1      Fulfilled
 5  O=C(Cc1ccc(Cl)cc1)NC1CCS(=O)(=O)C1 (stereo not drawn)  Not fulfilled
 6  NS(=O)(=O)c1ccc(CNC(=O)c2cc(S(=O)(=O)N3CCOCC3)ccc2N2CCCC2)cc1      Fulfilled
 7              Nn1c(SCC(=O)Nc2nccs2)nncc1=O  Not fulfilled
 8  COc1ccc(-c2nc3cnccn3c2NC(C)(C)CC(C)(C)C)cc1O      Fulfilled
 9  CC1CC(NC(=S)N(C)C)CC(C)(C)C1 (stereo not drawn)  Not fulfilled
10  c1ccc(-c2cc3c(NCC4COc5ccccc5O4)ncnc3s2)cc1 (stereo not drawn)      Fulfilled
11  COc1ccc(CN2CCC(n3nccc3NC(=O)CCCc3ccccc3)CC2)cc1C      Fulfilled
12  COc1nnc(-c2ccc(C)c(S(=O)(=O)N(C)C)c2)c2ccccc12      Fulfilled
13  O=C(CNC(=O)c1cc(S(=O)(=O)N2CCOCC2)ccc1N1CCCC1)Nc1ccc(F)c(F)c1      Fulfilled
14  Cc1ccc(CN2CCC(n3nccc3NC(=O)CCCc3ccccc3)CC2)o1  Not fulfilled
15  CC(C)(O)C#Cc1ccc(CNC[C@H]2O[C@@H](n3cnc4c(=O)[nH]c(N)nc43)[C@H](O)[C@@H]2O)s1  Not fulfilled
16  O=C(OCCOc1ccccc1Cl)c1cc(S(=O)(=O)N2CCCCC2)ccc1N1CCOCC1  Not fulfilled
17  Cc1ccc(COc2ccc(/C=N/NC(=O)CN3CCCCC3)cc2)cc1      Fulfilled
18  COC(=O)c1ccc2nc(-c3ccc(OC)c(OC)c3)c(Cc3ccccc3)n2c1  Not fulfilled
19  O=C(COC(=O)c1ccc([N+](=O)[O-])cc1Cl)NC(=O)c1ccccc1  Not fulfilled
20  O=C(Nc1ccc(N2CCCCC2)cc1)c1cc(S(=O)(=O)N2CCOCC2)ccc1F      Fulfilled
21  O=S1(=O)CCC(NC(=S)SCc2ccccc2Br)C1 (stereo not drawn)      Fulfilled
22  Cc1ccc(C2Nc3ccccc3C(=O)N2CCN2CCNC2=O)cc1 (stereo not drawn)  Not fulfilled
23  Cc1ccc(C(=O)Nc2ccccc2-c2ccccc2)cc1S(=O)(=O)Nc1ccccc1      Fulfilled
24  COc1cc(CN2CCC(n3nccc3NC(=O)CCCc3ccccc3)CC2)ccc1O  Not fulfilled
25  CCc1cccc(C)c1N(C(=O)Cn1c(CO)nc2ccccc21)C(C)COC (stereo not drawn)  Not fulfilled
26  COc1ccccc1CNC(=O)CCCN1C(=O)NC2(CCCC2)C1=O  Not fulfilled
27  COC(=O)Cc1ccc(OC2(C)CCN(Cc3ccc4c(c3)OCCO4)C2)cc1 (stereo not drawn)  Not fulfilled
28  CCc1nc(N2CCN(C(C)=O)CC2)c2c3c(sc2n1)CCCC3  Not fulfilled
29  COc1cccc(-c2nc3nc(C)cc(C)n3c2NC2CCCCC2)c1  Not fulfilled
30  CC1=C(C(=O)N2CCOCC2)CC(CC(=O)NCc2ccco2)C(=O)N1Cc1ccc(F)cc1 (stereo not drawn)  Not fulfilled
31  COc1ccc(NC(=S)NC2CCS(=O)(=O)C2)cc1 (stereo not drawn)  Not fulfilled
32  NNC(=O)C1CCCn2c1nc1sc3c(c1c2=O)CCCC3 (stereo not drawn)  Not fulfilled

----------
- Assay Details: qHTS for Inhibitors of Inflammasome Signaling: IL-1-beta AlphaLISA Primary Screen
- Assay Conditions: THP-1 LPS/ATP IL-1B secretion, 16 h; at 57.5 µM
- Text: Inflammasomes are a set of intracellular multi-protein complexes that enable autocatalytic activation of inflammatory caspases and drive the innate immune response to counter harmful agents. […] A qHTS assay, based on AlphaLISA technology, was developed to screen the Molecular Libraries Small Molecule Repository (MLSMR) to look for novel inflammasome inhibitors. The assay detects IL-1B using AlphaLISA anti-IL-1B acceptor and donor beads. […]
The whole screen tested about 360,000 compounds, of which about 17,000 (4.7%) were called active. Another 5% or so got no clear call; they are omitted. Cut-off read from the data, not from the text of the source: active = activity change below about -50%; inconclusive = mostly about -30% to -49%; inactive = weaker than that. This excerpt belongs to a sample that is enriched for actives.
Outcomes: active, inactive

                                    molecule  class_label
 0  COc1ccc(C(=O)NCC2CCCO2)cc1S(=O)(=O)NCc1ccc(Cl)cc1 (configuration not stated)     inactive
 1  Cc1cc2c(cc1C)N1C(=O)c3cc4ccccc4cc3NC(=O)C1C(=O)N2 (configuration not stated)     inactive
 2  C=CCn1c2ccccc2c2nnc(SCc3[nH]c(=O)[nH]c3C(=O)CCCCC(=O)OCC)nc21       active
 3      CCOc1ccccc1Oc1cn[nH]c1-c1ccc(OC)cc1O     inactive
 4     Cc1cc2oc(=O)cc(CN(C)Cc3ccccc3)c2cc1Cl     inactive
 5  COc1ccc(-c2[nH]ncc2/C=N/NC(=O)c2cc(Br)ccc2O)c(OC)c1     inactive
 6            CN(/N=C/c1ccccc1)C(=S)c1ccccc1     inactive
 7                 CCOC(=O)c1cnn2c(SC)ncnc12     inactive
 8         Cc1ccc(NC(=O)Cn2sc3ccccc3c2=O)cc1       active
 9  CCOC(=O)/C(=N\Nc1ccccc1[N+](=O)[O-])c1csc(Nc2ccccc2)n1     inactive
10  CN1OC[C@@H]2CN[C@H](c3ccc(-c4ccccc4)cc3)C[C@@H]21     inactive
11  CCN(C(=O)CN1C(=O)/C(=C/c2ccc(F)cc2)SC1=S)C1CCS(=O)(=O)C1 (configuration not stated)     inactive
12  COc1cccc2cc(C(=O)NCc3ccc(C)cc3)c(=N)oc12       active
13  O=C(c1ncn2c1c(=O)[nH]c1ccccc12)N1CCc2ccccc2C1     inactive
14  O=C(O)C(=Cc1ccc([N+](=O)[O-])cc1)CCc1ccccc1     inactive
15  CC1CCN(C(=O)c2ccc(CSc3ccc(Cl)cc3)cc2)CC1       active
16  Cc1ccc(N2C(=O)SC(N(CC(=O)O)c3ccc(C)cc3)C2=O)cc1 (configuration not stated)     inactive
17  COC(=O)C[C@@H]1C=C[C@@H](NS(=O)(=O)c2cccc(OC)c2)[C@@H](CO)O1     inactive
18  CC(C)N(C(=O)CSc1nc(COc2ccccc2)nc2ccccc12)C(C)C       active
19        O=C(c1ccc(CSc2ccccc2)cc1)N1CCCCCC1     inactive
20  C=CCn1c(SCC(=O)CC(=O)OCC)nc2cc(C(=O)N3CCC(C(N)=O)CC3)ccc2c1=O     inactive
21  CCCCCOc1ccc(/C=C/C(=O)NCCc2nc3ccccc3[nH]2)cc1OC     inactive
22  O=C(CCNC(=O)c1ccc(Cl)cc1)NC1CCCc2ccccc21 (configuration not stated)     inactive
23  COc1cc(CCN=Cc2ccccc2O)c([N+](=O)[O-])cc1OC     inactive
24  COC(C[C@H](O)CC(=O)[C@@H](C)OCc1ccccc1)OC     inactive
25          COc1cccc2cc(C(=O)N(C)C)c(=O)oc12     inactive
26  CC(=O)c1ccc(S(=O)(=O)NCc2nnnn2-c2ccccc2)cc1     inactive

Source listed as PubChem BioAssay AID743279.
